Test system: HepG2 cells
Assay: MTT cytotoxicity assay
Details: HepG2, 24 h, MTT; concentration at which cells retain 80% viability, extrapolated from the dose–response curve
Measured IC20, listed per entry for reference.
Kindly provide the numeric value in µM only, without the unit symbol.

Reported IC20 of O=C(NCCNc1ccnc2cc(Cl)ccc12)Nc1nc2ccc(Br)cc2s1 : 4.26

Reported IC20 of O=C(NCCCCNc1ccnc2cc(Cl)ccc12)Nc1nc2ccc(Br)cc2s1 : 2.13
